Cited source for all entries: PubChem BioAssay (NCI)

# Tested on: SK-MEL-5 melanoma
# protocol: NCI-60 one-dose screen, 48 h
# test.parameters: 10 µM unless noted
# Protocol: Growth inhibition of the SK-MEL-5 human tumor cell line is measured as a screen for anti-cancer activity. Cells are grown in 96 well plates and exposed to the test compound for 48 hours. Compounds are tested at a single concentration, which is 10^-5 M for most compounds. The reported endpoint is percent growth (GI% or GIPRCNT), where numbers from 0 - 100% represent growth inhibition, and numbers from -100% - 0 represent cell death. For example, a value of 40 represents 60% growth inhibition. […]
This is part of a sample that, as a whole, favours compounds with a hit. Of some 83,000 tested, about 20% had one in any assay. Active and inactive are the calls of the source. The calls were made as follows: active = growth percent below 10; inactive = the rest.
// allowed return values: yes for active, no for inactive

Illustrative cases are given below, each with its answer.
{"columns": ["compound", "qualitative.label"],
 "data": [
  ["COc1ccccc1C(=O)O/N=C(\\N)Cc1cccc2ccccc12", "no"],
  ["CCOC(=O)c1c2c(c(C)n1Cc1ccc(OC)cc1)-c1oncc1CC2", "no"],
  ["Cc1ccc(C(=O)c2oc3ccc4c(C)cc(=O)oc4c3c2C)cc1", "yes"],
  ["CC(=S)NC(=O)C(=O)/C=C1/NC(=O)C(=O)S1", "no"],
  ["CCn1c(SCC(=O)Nc2cc(C(F)(F)F)ccc2Cl)nc2ccccc2c1=O", "no"],
  ["O=C(Cc1ccccc1)NC(c1ccc(Cl)cc1)c1c(O)ccc2ccccc12 (stereo not drawn)", "yes"]
]}

Attention now turns to another entry.
Hi team, can someone confirm the assay call for CC1(O)COCCCCOc2c(CN)cccc2NC(=O)c2nc(cnc2N)-c2ccc(cc2)S(=O)(=O)C(C)(C)C1 (stereo not drawn) ?
yes

* * *

# Test system: CCRF-CEM leukemia
# protocol: NCI-60 one-dose screen, 48 h (100 = growth as untreated, 0 = no growth, -100 = all killed)
# test.parameters: 10 µM unless noted
About 83,000 compounds went through this panel and 20% of them were active in at least one assay; those are over-represented in the sample as a whole.
Mark 1 (yes) only for growth values smaller than 30%; exact matches and larger values are 0 (no).

Illustrative cases are given below, each with its answer.
{"columns": ["compound", "test.target", "qualitative.label"],
 "data": [
  ["C1CCN(c2nc(N3CCCCC3)nc(N3CCOCC3)n2)CC1", "CCRF-CEM leukemia", "0 (no)"],
  ["O=c1oc2ccc(Cl)cc2c(=O)n1-c1ccc(I)cc1F", "CCRF-CEM leukemia", "1 (yes)"],
  ["CCOC(=O)c1c2c(c(C)n1Cc1ccc(OC)cc1)-c1oncc1CC2", "CCRF-CEM leukemia", "0 (no)"]
]}

Below 30% on growth? Entry `Cc1c(-c2noc(-c3ccc([N+](=O)[O-])cc3)n2)no[n+]1[O-]`
0 (no)

Below 30% on growth? Entry CCCSC1=NC2C(N(CC)C(=O)N2CC)N1/N=C/C=C/c1ccccc1[N+](=O)[O-] (stereo not given)
1 (yes)

Below 30% on growth? Entry `CN(C)CCCNCc1ccc(-c2ccc(F)c(Cl)c2)o1`
1 (yes)

* * *

Catalogue of growth readings, one per entry.
# Test system: ACHN renal
# protocol: NCI-60 one-dose screen, 48 h (100 = growth as untreated, 0 = no growth, -100 = all killed)
# test.parameters: 10 µM unless noted
# Method: Growth inhibition of the ACHN human tumor cell line is measured as a screen for anti-cancer activity. Cells are grown in 96 well plates and exposed to the test compound for 48 hours. Compounds are tested at a single concentration, which is 10^-5 M for most compounds. The reported endpoint is percent growth (GI% or GIPRCNT), where numbers from 0 - 100% represent growth inhibition, and numbers from -100% - 0 represent cell death. For example, a value of 40 represents 60% growth inhibition. […]
The panel holds about 83,000 compounds, 20% with a hit somewhere; the sample as a whole holds those more often.
Report only the number, with the unit % understood.

// output growth; input `Cc1ccc(C(=O)c2oc3ccc4c(C)cc(=O)oc4c3c2C)cc1` ; system ACHN renal
32.9

* * *

# Test system: NCI-H522 lung
# protocol: NCI-60 one-dose screen, 48 h (100 = growth as untreated, 0 = no growth, -100 = all killed)
# test.parameters: 10 µM unless noted
The panel holds about 83,000 compounds, 20% with a hit somewhere; the sample as a whole holds those more often.
Mark t only for growth values smaller than 80%; exact matches and larger values are f.

Illustrative cases are given below, each with its answer.
{"columns": ["molecule", "qualitative.label"],
 "data": [
  ["CCOc1ccc2nc(C)cc(Nc3ccc(Br)cc3)c2c1", "f"],
  ["CCN(CC)CCNC(=O)C(Cl)=C1C(Cl)=C(Cl)C(Cl)=C1Cl", "t"],
  ["O=C(NCCCN1CCC(N2CCCCC2)CC1)C1=Cc2cc(Br)ccc2OC1", "t"],
  ["Cc1ccc(N=NC2C(=O)N(c3ccc(Cl)cc3)N(c3ccc(Cl)cc3)C2=O)cc1", "f"],
  ["COC(=O)/C(CCC=C(C)C)=C1\\[C@@H](OC(C)=O)C[C@@]2(C)[C@H]1C[C@@H](O)[C@H]1[C@@]3(C)CC[C@H](NC(=O)c4cnccn4)[C@@H](C)[C@@H]3CC[C@@]12C", "f"],
  ["CC1=C(C(=O)OCC2CCN(C(=O)OC(C)(C)C)CC2)[C@@H](c2cccc(C#N)c2)C2=C(CC(C)(C)CC2=O)N1", "t"],
  ["COC(=O)/C(CCC=C(C)C)=C1\\[C@@H](OC(C)=O)C[C@@]2(C)[C@H]1C[C@@H](O)[C@H]1[C@@]3(C)CC[C@H](NCCCNCCCCNCCCN)[C@@H](C)[C@@H]3CC[C@@]12C", "f"],
  ["CCN(CC)CCCNc1ccnc2cc3ccccc3cc12", "t"],
  ["Cc1ccc(Nc2nc(N)c3ccccc3n2)cc1Cl", "t"],
  ["Cc1sc2ncn(CC(=O)Nc3ccc(S(N)(=O)=O)cc3)c(=O)c2c1C", "f"]
]}

Below 80% on growth? Entry `CN(C)c1ccc(/C=C/c2ccnc3c(O)cccc23)cc1`
t

Below 80% on growth? Entry `O=C(Nc1ccc(Cl)cc1)N1CCN(c2ccc3nncn3n2)CC1`
t

Below 80% on growth? Entry `COc1ccc(/C(C#N)=C/c2nc3c(N4CCOCC4)nc(Cl)nc3n2C)cc1OC`
t

Below 80% on growth? Entry CCCCC1COc2cccc3c2N1C=C/C3=C\C(=O)N(C)c1ccccc1 (configuration not stated)
t

Below 80% on growth? Entry `COc1ccc(N)c(-c2cc3c(c4c2[nH]c2ccc(OC)cc24)CCCC3)c1`
t

* * *

# Tested on: HCT-15 colon
# protocol: NCI-60 one-dose screen, 48 h
# test.parameters: 10 µM unless noted
The panel holds about 83,000 compounds, 20% with a hit somewhere; the sample as a whole holds those more often. The source made the active and inactive calls. How the source made its calls: active means growth percent below 10; inactive means the rest.
// allowed return values: active, inactive

Illustrative cases are given below, each with its answer.
{"columns": ["molecule", "test.target", "qualitative.label"],
 "data": [
  ["c1ccc(-c2ccc(-c3nc4ccccc4[nH]3)cc2)cc1", "HCT-15 colon", "inactive"],
  ["CCCCN1CCN(c2ccc3nc(-c4ccc5nc(-c6ccc(OC)c(OC)c6)[nH]c5c4)[nH]c3c2)CC1", "HCT-15 colon", "inactive"],
  ["FC(F)(F)c1cccc(CNC2CCN(CCc3ccccc3)CC2)c1", "HCT-15 colon", "inactive"],
  ["CCCN1CCN(c2ccc3nc(-c4ccc5nc(-c6cc(OC)ccc6OC)[nH]c5c4)[nH]c3c2)CC1", "HCT-15 colon", "inactive"],
  ["COc1ccc(C2Nc3nc(OC)n(C)c(=O)c3N=C3c4ccccc4C(=O)C32)cc1 (stereo not given)", "HCT-15 colon", "inactive"]
]}

Hi team, can someone confirm the assay call for `O=C(Nc1ccc(Cl)cc1F)c1cc(Br)ccc1O` ?
active

Hi team, can someone confirm the assay call for Cc1ccc(NCCNCC(O)CO)c2c(=O)c3ccccc3sc12 (stereo not given) ?
active

Hi team, can someone confirm the assay call for `COc1ccc(-c2nocc2-c2cccs2)cc1` ?
inactive

Hi team, can someone confirm the assay call for `Cn1cc(-c2ccc3ncc(-c4ccc(CC(=O)Nc5cc(C(C)(C)C)no5)cc4)nc3c2)cn1` ?
inactive

Hi team, can someone confirm the assay call for Cc1ccc(C2CC(c3ccc(Nc4nc(NCCO)nc(Nc5ccc(Cl)cc5)n4)cc3)=NN2c2cc(Cl)cc(Cl)c2)cc1 (stereo not given) ?
inactive

* * *

# Tested on: M14 melanoma
# protocol: NCI-60 one-dose screen, 48 h (100 = growth as untreated, 0 = no growth, -100 = all killed)
# test.parameters: 10 µM unless noted
About 83,000 compounds went through this panel and 20% of them were active in at least one assay; those are over-represented in the sample as a whole.
Mark Condition met only for growth values smaller than 40%; exact matches and larger values are Condition not met.

{"columns": ["molecule", "test.target", "qualitative.label"],
 "data": [
  ["COc1ccc2occ(C3=C(c4c[nH]c5ccccc45)C(=O)NC3=O)c2c1", "M14 melanoma", "Condition met"],
  ["O=C(/C=C/c1ccccn1)c1ccc(OCc2nnc(-c3ccc(Cl)cc3)o2)cc1", "M14 melanoma", "Condition met"],
  ["FC(F)(F)c1cccc(Nc2nc3ccccc3nc2Nc2cccc(C(F)(F)F)c2)c1", "M14 melanoma", "Condition met"]
]}

Below 40% on growth? Entry `CC(C)Cn1c2c(c(=S)[nH]c1=O)CCC2`
Condition not met

Below 40% on growth? Entry `O=Cc1c(OCc2cnnn2CC(=O)Nc2ccc(Cl)cc2)ccc2ccccc12`
Condition not met

Below 40% on growth? Entry `O=C(Nc1ccsc1C(=O)NC1CCCCC1)c1ccc(F)cc1`
Condition not met

Below 40% on growth? Entry COc1ccc(C2C3=C(COC3=O)N(CCO)c3cc4c(cc32)CCC4)cc1 (stereo unspecified)
Condition met

Below 40% on growth? Entry `CNCCNc1nc2ccccc2c2c(=O)c3cc(OC)ccc3sc12`
Condition met
